Target: T1, IL-18 receptors on HEK-Blue IL-18 reporter cells (InvivoGen) (UniProt Q13478 19-541; O95256 20-599)
T1 sequence (looked up) 1: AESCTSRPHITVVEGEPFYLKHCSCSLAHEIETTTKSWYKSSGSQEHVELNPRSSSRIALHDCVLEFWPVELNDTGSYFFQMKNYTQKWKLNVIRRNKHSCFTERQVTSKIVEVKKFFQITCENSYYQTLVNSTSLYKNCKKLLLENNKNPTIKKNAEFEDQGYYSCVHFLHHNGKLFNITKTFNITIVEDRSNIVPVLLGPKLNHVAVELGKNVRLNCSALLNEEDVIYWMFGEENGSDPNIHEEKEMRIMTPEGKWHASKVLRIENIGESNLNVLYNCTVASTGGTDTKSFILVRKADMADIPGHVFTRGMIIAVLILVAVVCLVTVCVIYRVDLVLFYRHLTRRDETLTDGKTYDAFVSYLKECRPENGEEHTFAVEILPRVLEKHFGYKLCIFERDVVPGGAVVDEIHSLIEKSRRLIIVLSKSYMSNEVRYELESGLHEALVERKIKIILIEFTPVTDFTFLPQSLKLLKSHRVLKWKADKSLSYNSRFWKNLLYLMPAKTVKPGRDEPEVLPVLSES
T1 sequence (looked up) 2: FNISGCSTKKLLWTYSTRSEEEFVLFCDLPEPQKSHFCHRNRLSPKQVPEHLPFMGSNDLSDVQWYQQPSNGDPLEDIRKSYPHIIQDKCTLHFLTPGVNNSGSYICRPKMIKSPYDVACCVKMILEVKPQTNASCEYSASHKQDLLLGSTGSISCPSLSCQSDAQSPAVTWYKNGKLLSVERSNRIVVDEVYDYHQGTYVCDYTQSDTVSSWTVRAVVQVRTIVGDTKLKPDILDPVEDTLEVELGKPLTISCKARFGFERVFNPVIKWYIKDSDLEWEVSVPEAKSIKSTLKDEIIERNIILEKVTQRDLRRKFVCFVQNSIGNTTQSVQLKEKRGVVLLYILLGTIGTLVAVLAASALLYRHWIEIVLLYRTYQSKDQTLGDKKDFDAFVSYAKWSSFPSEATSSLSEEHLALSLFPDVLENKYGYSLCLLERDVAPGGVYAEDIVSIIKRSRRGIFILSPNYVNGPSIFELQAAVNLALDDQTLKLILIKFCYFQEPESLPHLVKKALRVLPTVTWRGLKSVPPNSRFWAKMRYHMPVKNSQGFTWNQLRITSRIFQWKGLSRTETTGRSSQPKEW
Assay: cell-based or functional assay
HEK-Blue EC50 pM, NO BP (50 nM BP run) values by entry
Metric Name: HEK-Blue EC50 pM, NO BP (50 nM BP run) (pM)

INSERT INTO measurements (binder, units_symbol, recorded_number) VALUES
  ('IL-18 variant M60K (ligand) YFGKLESKLSVIRNLNDQVLFIDQGNRPLFEDMTDSDMRDNAPRTIFIISMYKDSQPRGKAVTISVKSEKISTLSSENKIISFKEMNPPDNIKDTKSDIIFFQRSVPGHDNKMQFESSSYEGYFLASEKERDLFKLILKKEDELGDRSIMFTVQNED', 'pM', 2.9),
  ('Comparator 1 (human IL-18 variant M51K, K53S, Q56L, P57A, M60L, S105D, D110S, N111R) (ligand) YFGKLESKLSVIRNLNDQVLFIDQGNRPLFEDMTDSDCRDNAPRTIFIISKYSDSLARGLAVTISVKCEKISTLSCENKIISFKEMNPPDNIKDTKSDIIFFQRDVPGHSRKMQFESSSYEGYFLACEKERDLFKLILKKEDELGDRSIMFTVQNED', 'pM', 0.02),
  ('IL-18 variant M60K, D157E (ligand) YFGKLESKLSVIRNLNDQVLFIDQGNRPLFEDMTDSDMRDNAPRTIFIISMYKDSQPRGKAVTISVKSEKISTLSSENKIISFKEMNPPDNIKDTKSDIIFFQRSVPGHDNKMQFESSSYEGYFLASEKERDLFKLILKKEDELGDRSIMFTVQNEE', 'pM', 1.3);
